Entries and their EC50 (read off the curve) values follow.
Molecular target: T1, recombinant rhesus OX40-his (Sino Biological, Cat#:90846-C08H) (rhesus monkey, UniProt P43489 29-214 (human entry))
T1 construct: bought protein; also called monkey OX40-his; rhOX40-his; not shown: His tag
T1 chain: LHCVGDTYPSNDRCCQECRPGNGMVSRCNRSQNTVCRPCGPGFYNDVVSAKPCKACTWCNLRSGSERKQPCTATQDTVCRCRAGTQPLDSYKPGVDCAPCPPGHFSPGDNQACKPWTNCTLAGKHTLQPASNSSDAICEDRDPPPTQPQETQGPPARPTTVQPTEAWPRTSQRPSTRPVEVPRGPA
Experiment: ELISA on coated rhesus OX40-His, OD450

Worked cases, answers included:
chimeric antibody 71H8 (antibody, human IgG1, kappa, V domains shown, mouse variable regions with human IgG1/kappa constant regions) VH: QVQLQQSGAELVKPGASVKMSCKASGYTFTSYWITWVKQRPGQGLEWIGDIYPGSGSTNQNEKFKSKATLTVDTSSSTAYMQLSSLTSEDSAVYYCAKLRPYYFVYWGQGTTLTVSS VL: DIQMTQTPSSLSASLGDRVTISCRASQDISNYLNWYQQKPDGTVKLLIYYTSRLLSGVPSRFSGSGSGTDYSLTISNLEQEDIATYFCQQGNTLPLTFGAGTKLELKR ... ~3 ng/mL
71H8-VH3VL2 (antibody, human IgG1, kappa, V domains shown, humanized; also called 71H8-H3L2) VH: QVQLVQSGAEVKKPGASVKVSCKVSGYTFTSYWITWVRQRPGQGLEWIGDIYPGSGSTNQNEKFKSRVTLTVDTSTDTAYMELSSLRSEDTAVYYCATLRPYYFVYWGQGTLVTVSS VL: DIQMTQSPSSLSASVGDRVTITCRASQDISNYLNWYQQKPGKTPKLLIYYTSRLLSGVPSRFSGSGSGTDYTLTISSLQPEDFATYYCQQGNTLPLTFGQGTRLEIKR ... ~3 ng/mL

Attention now turns to another entry.
// query Fill blank: measured EC50 (read off the curve) of the binder 71H8-VH2VL2 (antibody, human IgG1, kappa, V domains shown, humanized; also called 71H8-H2L2) VH: QVQLVQSGAEVKKPGASVKVSCKVSGYTFTSYWITWVRQRPGKGLEWMGDIYPGSGSTNQNEKFKSRVTMTVDTSTDTAYMELSSLRSEDTAVYYCATLRPYYFVYWGQGTLVTVSS VL: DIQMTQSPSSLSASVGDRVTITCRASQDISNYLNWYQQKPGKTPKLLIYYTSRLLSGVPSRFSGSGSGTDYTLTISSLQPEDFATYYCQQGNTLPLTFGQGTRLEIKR is ____.
// result ~3 ng/mL
